Reference for the values: patent US20110275703A1

tested on: db/db mice; test: Study for glucose lowering effect in db/db mouse; format: in vivo; conditions: oral, 0.3 mg/kg, 24 hours, relative to control group, Table 3-2
measure: Percent reduction of blood glucose (%) 24 hours after administration
Give bare numbers, in %.

# example entries with known answers
1) Cc1cc2c(cc1Cc1ccc(C(C)C)cc1)[C@]1(OC2)O[C@H](CO)[C@@H](O)[C@H](O)[C@H]1O ... 33
2) OC[C@H]1O[C@]2(OCc3cc(Cl)c(Cc4ccc5ccccc5c4)cc32)[C@H](O)[C@@H](O)[C@@H]1O ... 42
3) CCOc1ccc(Cc2cc3c(cc2Cl)CO[C@]32O[C@H](CO)[C@@H](O)[C@H](O)[C@H]2O)cc1 ... 25

Moving on to the next molecule.
Can you share its Percent reduction of blood glucose (%) 24 hours after administration? I mean this molecule: CC(C)c1ccc(Cc2ccc3c(c2)C2(OC3)OC(CO)C(O)C(O)C2O)cc1 (stereo not shown) [Comparative Compound 2, reference compound]
4.9

* * *

Field: IC50. Provide a value for each of the molecules that follow.
target: human SGLT2 (Homo sapiens, UniProt P31639); construct: expressed in transfected cells; host or cells: CHO-K1; experiment: Inhibitory activity against methyl-α-D-glucopyranoside uptake, CHO cells stably expressing human SGLT2; type: cell-based; conditions: Table 2-2; read-out: hhSGLT2 IC50 value
Numbers only, in nM.

1) OC[C@H]1O[C@]2(OCc3cc(Cl)c(Cc4ccc(CCF)cc4)cc32)[C@H](O)[C@@H](O)[C@@H]1O ... 1.1

Consider the following items and state reported IC50 for each.
1. CCc1ccc(Cc2cc3c(cc2C)CO[C@]32O[C@H](CO)[C@@H](O)[C@H](O)[C@H]2O)cc1 [Comparative Compound 1, reference compound]
2. CCc1ccc(Cc2cc3c(cc2Cl)CO[C@]32O[C@H](CO)[C@@H](O)[C@H](O)[C@H]2O)cc1
3. CCCc1ccc(Cc2cc3c(cc2Cl)CO[C@]32O[C@H](CO)[C@@H](O)[C@H](O)[C@H]2O)cc1

1. 1.6
2. 1.3
3. 2.3

* * *

Target: human SGLT2 (Homo sapiens)
Construct: expressed in transfected cells; host or cells: CHO-K1
Test: Inhibitory activity against methyl-α-D-glucopyranoside uptake, CHO cells stably expressing human SGLT2
Type: cell-based
Settings: inhibition of SGLT2, Table 2-1; read-out: IC50 value
From the text: Evaluation of inhibitory activity against methyl-α-D-glucopyranoside uptake of human Na^+-glucose cotransporter (SGLT1 and SGLT2) 2) Construction of Human SGLT2 Expression Vector Human SGLT2 cDNA was amplified by PCR with a cDNA library derived from human kidney (Clontech) as a template, synthetic DNA primers and KOD+ DNA Polymerase. The amplified cDNA was inserted into pcRII-Topo vector by using a Topo TA Cloning Dual Promoter kit. […]
Field: IC50. Provide a value for each of the compounds that follow.
Give bare numbers, in nM.

# example entries with known answers
1. CC(C)(C)c1ccc(Cc2cc3c(cc2Cl)CO[C@]32O[C@H](CO)[C@@H](O)[C@H](O)[C@H]2O)cc1 ... 3.4
2. CSc1ccc(Cc2cc3c(cc2Cl)CO[C@]32O[C@H](CO)[C@@H](O)[C@H](O)[C@H]2O)cc1 ... 1.3
3. COc1ccc(Cc2cc3c(cc2C)CO[C@]32O[C@H](CO)[C@@H](O)[C@H](O)[C@H]2O)cc1 ... 1.5

Moving on to the next compound.
Can you share its IC50? I mean this compound: CCCc1ccc(Cc2cc3c(cc2Cl)CO[C@]32O[C@H](CO)[C@@H](O)[C@H](O)[C@H]2O)cc1
2.3

* * *

molecular target: human SGLT2 (Homo sapiens); construct: expressed in transfected cells; host or cells: CHO-K1; experiment: Inhibitory activity against methyl-α-D-glucopyranoside uptake, CHO cells stably expressing human SGLT2; assay type: cell-based; conditions: inhibition of SGLT2, Table 2-1; read-out: IC50 value
measure: pIC50
Give bare numbers, as −log10 of the molar value.

# example entries with known answers
1) CCc1ccc(Cc2cc3c(cc2F)CO[C@]32O[C@H](CO)[C@@H](O)[C@H](O)[C@H]2O)cc1 [Example 16] ... 8.82
2) Cc1ccc(Cc2cc3c(cc2Cl)CO[C@]32O[C@H](CO)[C@@H](O)[C@H](O)[C@H]2O)cc1 [Example 2] ... 8.92
3) OC[C@H]1O[C@]2(OCc3cc(Cl)c(Cc4ccc5ccccc5c4)cc32)[C@H](O)[C@@H](O)[C@@H]1O [Example 7] ... 8.77
4) OC[C@H]1O[C@]2(OCc3cc(Cl)c(Cc4cc5ccccc5s4)cc32)[C@H](O)[C@@H](O)[C@@H]1O [Example 28] ... 8.85
5) OC[C@H]1O[C@]2(OCc3cc(Cl)c(Cc4ccc(Cl)cc4)cc32)[C@H](O)[C@@H](O)[C@@H]1O [Example 6] ... 8.89

Consider the following items and state reported pIC50 for each.
1. CC(C)c1ccc(Cc2cc3c(cc2Cl)CO[C@]32O[C@H](CO)[C@@H](O)[C@H](O)[C@H]2O)cc1 [Example 15]
2. CC(C)c1ccc(Cc2cc3c(cc2F)CO[C@]32O[C@H](CO)[C@@H](O)[C@H](O)[C@H]2O)cc1 [Example 19]

8.77
8.70

* * *

target: human SGLT2 (Homo sapiens); construct: expressed in transfected cells; host or cells: CHO-K1; experiment: Inhibitory activity against methyl-α-D-glucopyranoside uptake, CHO cells stably expressing human SGLT2; format: cell-based; conditions: Table 2-2; read-out: hhSGLT2 IC50 value
measure: IC50

# example entries with known answers
1. CCOc1ccc(Cc2cc3c(cc2Cl)CO[C@]32O[C@H](CO)[C@@H](O)[C@H](O)[C@H]2O)cc1 ... 1.5 nM
2. Cc1cc2c(cc1Cc1ccc(C(C)C)cc1)[C@]1(OC2)O[C@H](CO)[C@@H](O)[C@H](O)[C@H]1O ... 2 nM
3. OC[C@H]1O[C@]2(OCc3cc(Cl)c(Cc4ccc5ccccc5c4)cc32)[C@H](O)[C@@H](O)[C@@H]1O ... 1.7 nM

Can you share its IC50? I mean this compound: CC(C)c1ccc(Cc2cc3c(cc2Cl)CO[C@]32O[C@H](CO)[C@@H](O)[C@H](O)[C@H]2O)cc1
1.7 nM

* * *

Biological target: human SGLT2 (Homo sapiens, UniProt P31639)
Construct: expressed in transfected cells; host or cells: CHO-K1
Sequence (P31639 1-672): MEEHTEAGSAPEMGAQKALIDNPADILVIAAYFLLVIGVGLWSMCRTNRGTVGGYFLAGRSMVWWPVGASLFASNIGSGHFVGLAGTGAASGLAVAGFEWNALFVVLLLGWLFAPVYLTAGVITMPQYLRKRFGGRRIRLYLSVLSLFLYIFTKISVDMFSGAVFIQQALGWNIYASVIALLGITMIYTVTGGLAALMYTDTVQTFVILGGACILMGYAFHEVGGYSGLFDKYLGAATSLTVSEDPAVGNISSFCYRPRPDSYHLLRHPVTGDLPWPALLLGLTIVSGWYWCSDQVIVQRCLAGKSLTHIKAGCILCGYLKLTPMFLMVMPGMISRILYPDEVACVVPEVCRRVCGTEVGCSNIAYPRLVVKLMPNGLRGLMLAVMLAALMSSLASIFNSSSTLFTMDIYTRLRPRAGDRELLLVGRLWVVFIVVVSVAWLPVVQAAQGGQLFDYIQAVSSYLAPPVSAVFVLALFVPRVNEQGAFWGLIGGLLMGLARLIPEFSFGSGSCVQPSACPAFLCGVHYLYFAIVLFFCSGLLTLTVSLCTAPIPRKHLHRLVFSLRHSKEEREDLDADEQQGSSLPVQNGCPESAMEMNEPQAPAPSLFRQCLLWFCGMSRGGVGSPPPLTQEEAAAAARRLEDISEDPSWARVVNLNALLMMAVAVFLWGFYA
Assay: Inhibitory activity against methyl-α-D-glucopyranoside uptake, CHO cells stably expressing human SGLT2
Type: cell-based
Conditions: inhibition of SGLT2, Table 2-1; read-out: IC50 value
measure: IC50
Write down the value, and be sure its unit follows.

# example entries with known answers
1. Cc1cc2c(cc1Cc1ccc(CCF)cc1)[C@]1(OC2)O[C@H](CO)[C@@H](O)[C@H](O)[C@H]1O ... 1.1 nM
2. CCc1ccc(Cc2cc3c(cc2Cl)CO[C@]32O[C@H](CO)[C@@H](O)[C@H](O)[C@H]2O)cc1 ... 1.3 nM
3. OC[C@H]1O[C@]2(OCc3cc(Cl)c(Cc4ccc(OC(F)(F)F)cc4)cc32)[C@H](O)[C@@H](O)[C@@H]1O ... 1.9 nM

Moving on to the next compound.
Can you share its IC50? I mean this compound: CC(=O)c1ccc(Cc2cc3c(cc2Cl)CO[C@]32O[C@H](CO)[C@@H](O)[C@H](O)[C@H]2O)cc1
1.5 nM
